src = patent US8536354B2

- EXPERIMENTAL_TARGET: BmEcR (GAL4-EcR DEF with VP16-RXR-USP chimera) (Bombyx mori)
- Sequence (P49881 other isoform, or with tags, fused parts or gaps, change not shown): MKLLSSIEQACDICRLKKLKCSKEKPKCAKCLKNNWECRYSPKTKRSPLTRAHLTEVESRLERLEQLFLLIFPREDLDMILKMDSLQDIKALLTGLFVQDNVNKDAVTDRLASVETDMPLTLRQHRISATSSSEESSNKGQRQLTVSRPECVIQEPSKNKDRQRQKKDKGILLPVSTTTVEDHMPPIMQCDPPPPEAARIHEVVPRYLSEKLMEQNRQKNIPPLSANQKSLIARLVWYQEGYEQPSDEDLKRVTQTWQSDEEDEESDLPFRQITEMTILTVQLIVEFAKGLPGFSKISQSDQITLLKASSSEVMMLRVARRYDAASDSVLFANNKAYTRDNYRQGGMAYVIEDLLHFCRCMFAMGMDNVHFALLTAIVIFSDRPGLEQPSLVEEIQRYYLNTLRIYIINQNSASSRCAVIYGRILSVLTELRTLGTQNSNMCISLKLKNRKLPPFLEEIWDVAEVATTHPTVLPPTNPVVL
- EXPERIMENT_DESCRIPTION: Two-hybrid gene switch assay, luciferase reporter, BmEcR, mouse NIH3T3 cells
- Type: cell-based
- CONDITION_PARAMETERS: read-out: EC50
pEC50: −log10 of the molar value.
pEC50 for assorted compounds
PROPERTY_MEASURED: pEC50

INSERT INTO assay_data (compound, result) VALUES
  ('CC(=O)O[C@H](CCC(C)(C)O)[C@](C)(O)[C@H]1CC[C@@]2(O)C3=CC(=O)[C@@H]4C[C@@H](O)[C@@H](O)C[C@]4(C)[C@H]3CC[C@]12C [Compound 20-hydroxyecdysone-22-acetate]', '< 4.48'),
  ('CC(CC(O)C(C)(O)C1CCC2(O)C3=CC(=O)C4CC(O)C(O)CC4(C)C3CCC12C)C(C)(C)O (centres unmarked)', '< 4.48'),
  ('C=C(C)CC[C@@H](O)[C@](C)(O)[C@H]1CC[C@@]2(O)C3=CC(=O)[C@@H]4C[C@@H](O)[C@@H](O)C[C@]4(C)[C@H]3CC[C@]12C', 5.20),
  ('CC(C)(O)CCC(O)C(C)(O)C1CCC2(O)C3=CC(=O)C4CC(O)CCC4(C)C3CCC12C (centres unmarked) [Compound 2-deoxy-20-hydroxyecdysone]', '< 4.48'),
  ('CC1(C)OC(=O)C=C1CC(O)C(C)(O)C1CCC2(O)C3=CC(=O)C4CC(O)C(O)CC4(C)C3CCC12C (centres unmarked)', '< 4.48');
